# credit: patent US20210130452A1

Entries and their IC50, hIL-17F induced IL-6, HT-1080, without HSA values follow.
- Tested target: T1, human IL-17F (human, UniProt Q96PD4 31-163)
- T1 sequence: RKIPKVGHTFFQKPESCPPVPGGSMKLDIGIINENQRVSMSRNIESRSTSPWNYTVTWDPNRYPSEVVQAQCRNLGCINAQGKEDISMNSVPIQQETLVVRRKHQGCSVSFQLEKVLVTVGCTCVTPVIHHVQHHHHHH
- Test name: cell-based or functional assay
Please append the unit to your numeric answer.

Recorded results for 3 binders are shown here.
SH-Fc-(GS)2-13B03 (Fc fusion, not shown: a dimerising Fc or GST; small tags and cut ends, also called MSB0010618; SH-(GS)2-Fc-13B03) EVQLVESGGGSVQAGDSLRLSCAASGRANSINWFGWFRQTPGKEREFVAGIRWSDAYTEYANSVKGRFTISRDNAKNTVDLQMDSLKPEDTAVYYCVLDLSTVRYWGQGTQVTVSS
5.7 nM
13B03-SH-Fc (Fc fusion, not shown: a dimerising Fc or GST, bivalent Fc fusion from Hek-293-6E cells; signal peptide left out; also called MSB0010493; 13B03VHH-SH-Fc) EVQLVESGGGSVQAGDSLRLSCAASGRANSINWFGWFRQTPGKEREFVAGIRWSDAYTEYANSVKGRFTISRDNAKNTVDLQMDSLKPEDTAVYYCVLDLSTVRYWGQGTQVTVSSEPKSSDKTHTCPPCP
5.8 nM
13E02-LH-Fc (Fc fusion, not shown: a dimerising Fc or GST, bivalent Fc fusion from Hek-293-6E cells; also called MSB0010606) EVQLVESGGGLVQAGGSLRLSCAASGRTYDAMGWLRQAPGKEREFVAAISGSGDDTYYADSVKGRFTISKDNAGITMYLQMNSLKPEDTAVYYCATRRGLYYVWDSNDYENWGQGTQVTVSSEPKTPKPQPQPQPQPNPTTESKCPKCP
2.7 nM

Okay, next one:
# get_value(readout='IC50, hIL-17F induced IL-6, HT-1080, without HSA', item= SH-Fc-(GS)2-13E02 (Fc fusion, not shown: a dimerising Fc or GST; small tags and cut ends, also called MSB0010619; SH-(GS)2-Fc-13E02) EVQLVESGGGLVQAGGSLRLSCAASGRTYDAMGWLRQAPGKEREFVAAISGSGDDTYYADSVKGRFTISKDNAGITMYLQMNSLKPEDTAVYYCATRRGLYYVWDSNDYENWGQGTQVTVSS )
4.9 nM
